Each recorded value in this set is attributed to patent US4194006A.

# Tested on: isolated rat atrium
# Test Description: antiarrhythmic effect, isolated rat atrium method of M. Libonati and G. Segre
# Condition Label: Rattus norvegicus, read-out: Mean percent variation versus controls: frequency max (-%)
Hi there, I'd appreciate the recorded inhibition at 0.1 µg/mL for every entry that follows.
Record the value in %, omitting the unit from your answer.

Look up inhibition at 0.1 µg/mL: CCCCCCCCCCCCCCCC(=O)OC(CC(=O)[O-])C[N+](C)(C)C (racemic) 80.5

Look up inhibition at 0.1 µg/mL: CC(=O)OC(CC(=O)[O-])C[N+](C)(C)C (racemic) 23.6

Look up inhibition at 0.1 µg/mL: CCC(=O)OC(CC(=O)[O-])C[N+](C)(C)C (racemic) 7.65

Look up inhibition at 0.1 µg/mL: C[N+](C)(C)CC(O)CC(=O)[O-] (racemic) [d,l-carnitine, γ-trimethyl amino β-hydroxy butyric acid] 25.2

###

# System: female rats
# Test Description: antifatigue effect: rota-rod
# Format: in vivo, rat
# Condition Label: Rattus norvegicus, ip, 0.25 h, read-out: percentage of animals staying on the rota-rod more than 180 seconds, 600 mg/kg i.p.; session 6 (every 15 minutes); * p < 0.05
Readout Type: responders at 600 mg/kg (%)
Record the value in %, omitting the unit from your answer.

Look up responders at 600 mg/kg: CCCCCCCCCCCCCCCC(=O)OC(CC(=O)[O-])C[N+](C)(C)C (racemic) [palmitoyl-d,l-carnitine] 30

Look up responders at 600 mg/kg: CC(=O)OC(CC(=O)[O-])C[N+](C)(C)C (racemic) [acetyl-d,l-carnitine] 50

Look up responders at 600 mg/kg: CCC(=O)OC(CC(=O)[O-])C[N+](C)(C)C (racemic) [propionyl-d,l-carnitine] 40

Look up responders at 600 mg/kg: C[N+](C)(C)CC(O)CC(=O)[O-] (racemic) [d,l-carnitine, γ-trimethyl amino β-hydroxy butyric acid] 25

###

# Test system: isolated rat atrium
# Test Description: antiarrhythmic effect, isolated rat atrium method of M. Libonati and G. Segre
# Condition Label: Rattus norvegicus; 1·10^-4 g/lt; decrease; read-out: Mean percent variation versus controls: frequency max (-%)
Readout Type: inhibition at 0.1 µg/mL (%)
Record the value in %, omitting the unit from your answer.

Look up inhibition at 0.1 µg/mL: CC(=O)CC(=O)OC(CC(=O)[O-])C[N+](C)(C)C (racemic) 25.5

Look up inhibition at 0.1 µg/mL: C=C[C@H]1C[N@@]2CC[C@H]1C[C@@H]2[C@@H](O)c1ccnc2ccc(OC)cc12 [Quinidine, reference compound] 71.2

Look up inhibition at 0.1 µg/mL: CCCCCCCCCCCCCCCCCC(=O)OC(CC(=O)[O-])C[N+](C)(C)C (racemic) 3.5

Look up inhibition at 0.1 µg/mL: CCCC(=O)OC(CC(=O)[O-])C[N+](C)(C)C (racemic) 62.3

Look up inhibition at 0.1 µg/mL: CCCCCC(=O)OC(CC(=O)[O-])C[N+](C)(C)C (racemic) 25.1

Look up inhibition at 0.1 µg/mL: CCCCCCCCCC(=O)OC(CC(=O)[O-])C[N+](C)(C)C (racemic) 24.8

Look up inhibition at 0.1 µg/mL: CCCCCCCC(=O)OC(CC(=O)[O-])C[N+](C)(C)C (racemic) 17.2

###

# Tested on: isolated rabbit hearts
# Test Description: coronary vasodilator effect: coronary flow, isolated heart (Langendorff)
# Condition Label: 1·10^-5 g/lt
Readout Type: Coronary flow, Mean ± S.E. (%)
Record the value in %, omitting the unit from your answer.

Look up Coronary flow, Mean ± S.E.: CCCCCCCC(=O)OC(CC(=O)[O-])C[N+](C)(C)C (racemic) [octanoyl-d,l-carnitine] 84.71

Look up Coronary flow, Mean ± S.E.: CCCC(=O)OC(CC(=O)[O-])C[N+](C)(C)C (racemic) [butyryl-d,l-carnitine] 90.12

Look up Coronary flow, Mean ± S.E.: CC(=O)CC(=O)OC(CC(=O)[O-])C[N+](C)(C)C (racemic) [acetoacetyl-d,l-carnitine] 89.82

Look up Coronary flow, Mean ± S.E.: CC(=O)OC(CC(=O)[O-])C[N+](C)(C)C (racemic) [acetyl-d,l-carnitine] 90.05

Look up Coronary flow, Mean ± S.E.: C[N+](C)(C)CC(O)CC(=O)[O-] (racemic) [d,l-carnitine, γ-trimethyl amino β-hydroxy butyric acid] 85.18

Look up Coronary flow, Mean ± S.E.: CCCCCCCCCCCCCCCCCC(=O)OC(CC(=O)[O-])C[N+](C)(C)C (racemic) [stearoyl-d,l-carnitine] 81.05

Look up Coronary flow, Mean ± S.E.: CCCCCCCCCC(=O)OC(CC(=O)[O-])C[N+](C)(C)C (racemic) [decanoyl-d,l-carnitine] 83.21

###

# System: female rats
# Test Description: antifatigue effect: rota-rod
# Format: in vivo, rat
# Condition Label: Rattus norvegicus, ip, 0.25 h, read-out: percentage of animals staying on the rota-rod more than 180 seconds, 600 mg/kg i.p.; session 5 (every 15 minutes)
Hi there, I'd appreciate the recorded responders at 600 mg/kg for every entry that follows.
Record the value in %, omitting the unit from your answer.

Look up responders at 600 mg/kg: CC(=O)OC(CC(=O)[O-])C[N+](C)(C)C (racemic) [acetyl-d,l-carnitine] 40

Look up responders at 600 mg/kg: CCCCCCCCCCCCCCCC(=O)OC(CC(=O)[O-])C[N+](C)(C)C (racemic) [palmitoyl-d,l-carnitine] 20

Look up responders at 600 mg/kg: C[N+](C)(C)CC(O)CC(=O)[O-] (racemic) [d,l-carnitine, γ-trimethyl amino β-hydroxy butyric acid] 16.7

Look up responders at 600 mg/kg: CCC(=O)OC(CC(=O)[O-])C[N+](C)(C)C (racemic) [propionyl-d,l-carnitine] 40
